Measured values drawn from PubChem BioAssay AID1285 for this set.

assay: APP 5'UTR translational reporter suppression – APP 5'UTR luciferase, SH-SY5Y cells, primary screen (AID 1285); conditions: SH-SY5Y APP 5'UTR-luciferase reporter, luminescence; at 2 µM
In all, about 190,000 compounds went through this assay and about 1,600 (0.84%) were called active.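 The calls were made as follows: active = inhibition above a set limit, derived from the sample mean plus 3 SD (cut at about 45% in these data); inconclusive = one replicate passes the limit while the other fails; inactive = the rest.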 Shown is part of a subset that was picked to be rich in actives.
Please state which outcome applies, choosing from active, inactive

Q. Called result for `CCOc1ccc(-n2c(O)c(/C=N/Nc3nnc(C)c(=O)[nH]3)c3ccccc3c2=O)cc1`
A. inactive

Q. Identify the outcome logged in this assay for the compound shown: `COc1cc(Cl)c(C)cc1NC(=O)COC(=O)c1cc(SC)ccc1Cl`
A. inactive

Q. Identify the outcome logged in this assay for the compound shown: Cc1ccc(C2CC(=O)NC(SCC(=O)OCc3ccccc3)=C2C#N)o1 (stereo not drawn)
A. inactive

Q. Would you mind telling me which call this test gave COc1ccc(OC(C)C(=O)NCCc2nc3ccccc3[nH]2)cc1 (stereo not drawn) ?
A. inactive

Q. Just curious, what result did `Cc1ccc(S(=O)(=O)N(CC(=O)NN=C2CCN(C)CC2)c2ccc(F)cc2)cc1` get here?
A. inactive

Q. How did this test come out for `COc1ccc(C(=O)NN(C)c2nc(-c3ccccc3)cc(C)c2S(C)(=O)=O)cc1` ?
A. inactive

Q. Query: recorded result category for `CCC(C)(C)NC(=O)C1c2ccccc2Oc2ccccc21` in this test
A. inactive

Q. For `Clc1ccc(CN2CCN(/N=C/c3cccnc3)CC2)cc1` , which call appears in the assay record?
A. inactive

Q. Please indicate how the test categorized `O=C1/C(=C\c2cccnc2)CN(Cc2ccccc2)C/C1=C\c1cccnc1` .
A. active

Q. Outcome logged for `COC(=O)CNC(=O)c1ccccc1F` in this assay:
A. inactive

Q. Please let me know the test result on file for `Cc1cccc(N2CCN(c3ccc(C(N)=O)cc3[N+](=O)[O-])CC2)c1C` .
A. inactive

Q. Per the assay record, what outcome was assigned to `CCOc1ccccc1NC(=O)CCc1ccc(C)o1` ?
A. inactive

Q. Recorded test call requested for `CN(NC(=O)c1ccccc1F)c1nc(C(F)(F)F)nc2ccccc12`
A. active

Q. Which outcome did this test record for the compound `Clc1cccc(CN2COc3c(cc(Cl)c4cccnc34)C2)c1` ?
A. active

Q. Kindly provide the recorded test outcome for the following compound: `COc1ccc(Cc2nnc(N/N=C/c3ccccc3O)[nH]c2=O)cc1OC`
A. active

Q. Recorded test outcome, item COc1ccc(C(CCNCc2ccccc2F)c2ccc(F)cc2)cc1 (stereo not drawn)
A. active

Q. Write down the call the test reported for this compound. Item: `CN1CCN(C(=O)CCc2nc(-c3ccc(Cl)cc3)no2)CC1`
A. inactive

Q. In this assay, the call recorded for `CCCn1c(NC(=O)C23CC4CC(CC(O)(C4)C2)C3)nc2ccccc21` was what?
A. inactive

Q. Each compound tested received a call. Report the one for `O=C(NNC(=S)Nc1ccccc1)c1cccc(S(=O)(=O)N2CCOCC2)c1` .
A. inactive

Q. Recorded test outcome, item `Cc1ccc(CCC(=O)Nc2ncc(Cc3cc(Cl)ccc3Cl)s2)o1`
A. active

Q. Status in this test for `Cc1cnc(NC(=O)CSc2nnc(-c3ccc(Cl)cc3Cl)n2N)s1` ?
A. inactive

Q. GET /call?item= `COc1ccc(/C=N/Nc2nc3ccccc3c(=O)[nH]2)cc1` returns the recorded outcome of this test.
A. inactive

Q. Per the assay record, what outcome was assigned to COc1ccc(CC(=O)NC(C)CCc2ccccc2)cc1 (stereo not drawn) ?
A. inactive
